System: giant foxtail (Setaria faberi)
MEASUREMENT_DESCRIPTION: Test G Post-Emergence Protocol
Format: in vivo
MEASUREMENT_PARAMETERS: Setaria faberi, post-emergence, 312 h, 250 g ai/ha, evaluated after 13 days, read-out: damage to plant, Foxtail, Giant (100=total damage to plant; 0=no damage to plant)
METRIC: pest or weed control at 250 g/ha
Please report the result as a number followed by the unit.

# query: pest or weed control at 250 g/ha of entry C=C(C)c1ccccc1NC(=O)[C@H]1C(=O)N(C)C[C@@H]1c1ccc(C(F)(F)F)cc1 (racemic) [Compound 1449]
60%

Check Cc1nc(C(F)(F)F)ccc1NC(=O)[C@@H]1C(=O)N(C)C[C@H]1c1ccc(C(F)(F)F)cc1 (racemic) [Compound 1566] too.
0%

Check CN1C[C@@H](c2ccc(C(F)(F)F)cc2)[C@H](C(=O)Nc2cc(C(F)(F)F)n(C)n2)C1=O (racemic) [Compound 1512] too.
0%

Check CN1C[C@@H](c2ccc(C(F)(F)F)cc2)[C@H](C(=O)Nc2n[nH]c(C(F)(F)F)n2)C1=O (racemic) [Compound 1540] too.
0%

Check CN1C[C@@H](c2ccc(C(F)(F)F)cc2)[C@H](C(=O)Nc2cc(Cl)n[nH]2)C1=O (racemic) [Compound 1632] too.
20%

Check Cc1nc(F)ccc1[C@@H]1CN(C)C(=O)[C@H]1C(=O)Nc1cccc(F)c1F (racemic) [Compound 1492] too.
60%

Check CN1C[C@@H](c2ccc(C(F)(F)F)cc2)[C@H](C(=O)Nc2cc(F)nc(F)c2)C1=O (racemic) [Compound 1515] too.
0%

* * *

I'd be grateful if you could share measured pest or weed control at 250 g/ha for these entries.
Tested on: giant foxtail (Setaria faberi)
MEASUREMENT_DESCRIPTION: Test G Post-Emergence Protocol
Assay type: in vivo
MEASUREMENT_PARAMETERS: Setaria faberi, post-emergence, 312 h, 250 g ai/ha, evaluated after 13 days, 100=total damage to plant, 0=no damage to plant, read-out: Foxtail, Giant damage rating
Answer format: numeric, % implied, no suffix.

Form entry - test system: giant foxtail (Setaria faberi); read-out: pest or weed control at 250 g/ha; molecule: CN1C[C@H](c2cccc(C(F)(F)F)c2)[C@@H](C(=O)Nc2cnccc2[S+](C)[O-])C1=O (mixture of isomers) [Compound 1752]
0

Check CN1C[C@@H](c2ccc(C(F)(F)F)cc2)[C@H](C(=O)Nc2cnc(Cl)cn2)C1=O (racemic) [Compound 1649] too.
60

Check CN1C[C@H](c2ccc(Cl)cc2)[C@@H](C(=O)Nc2ccc(F)nc2F)C1=O [Compound 1811] too.
80

Check CN1C[C@H](c2cc(Cl)cc(C(F)(F)F)c2)[C@@H](C(=O)Nc2ccccc2S(C)(=O)=O)C1=O (racemic) [Compound 1797] too.
80

* * *

I'd be grateful if you could share measured Plant response rating, Pigweed for these entries.
System: pigweed (Amaranthus retroflexus)
MEASUREMENT_DESCRIPTION: Test A preemergence
Assay type: in vivo
MEASUREMENT_PARAMETERS: 125 g ai/ha, preemergence; 0 to 100 scale (0 no effect, 100 complete control)
Reply with just the number.

# query: Plant response rating, Pigweed of entry CC(C)Oc1cccc(C2CNC(=O)C2C(=O)Nc2ccc(F)cc2F)c1 (racemic)
50

Check O=C(Nc1cccc(F)c1F)C1C(=O)N(c2ccccc2)CC1c1cccc(C(F)(F)F)c1 (stereo not shown) too.
0

Check CCCOc1cccc(C2CNC(=O)C2C(=O)Nc2cccc(F)c2F)c1 (racemic) too.
0

Check O=C1NCC(c2cccc(OCC(F)F)c2)C1C(=O)Nc1ccc(F)cc1F (stereo not shown) too.
0

* * *

System: giant foxtail (Setaria faberi)
MEASUREMENT_DESCRIPTION: Test G Pre-Emergence Protocol
Format: in vivo
MEASUREMENT_PARAMETERS: Setaria faberi, pre-emergence, 312 h, 62.5 g ai/ha, evaluated after 13 days, 100=total damage to plant, 0=no damage to plant, read-out: Foxtail, Giant damage rating
METRIC: pest or weed control at 62.5 g/ha (%)
Answer format: numeric, % implied, no suffix.

Form entry - test system: giant foxtail (Setaria faberi); read-out: pest or weed control at 62.5 g/ha; compound: COCCOc1cccc([C@@H]2CN(C)C(=O)[C@H]2C(=O)Nc2cccc(F)c2C)c1 (racemic) [Compound 1765]
70

Check Cc1cc([C@H]2CN(C)C(=O)[C@@H]2C(=O)Nc2cccc(F)c2F)cnn1 (racemic) [Compound 1662] too.
0

Check Cc1cc(C2CN(C)C(=O)C2C(=O)Nc2cccc(F)c2F)cc(C)c1Cl (stereo not shown) [Compound 1700] too.
80

Check CN1C[C@H](c2cccc(C(F)(F)F)c2)[C@@H](C(=O)Nc2ccc(O)cc2F)C1=O (racemic) [Compound 1785] too.
0

* * *

Test system: Galium (catchweed bedstraw, Galium aparine)
MEASUREMENT_DESCRIPTION: Test A postemergence
Type: in vivo
MEASUREMENT_PARAMETERS: Galium, post-emergence, 240 h, 125 g ai/ha, postemergence, visual injury rating after approximately 10 d; read-out: Galium plant response rating (0 to 100 scale, 0 no effect, 100 complete control)
Rule: pest or weed control at 125 g/ha under 20% gives 0, otherwise 1.

Textbook exercise: given the entry COc1cc([C@H]2CN(C)C(=O)[C@@H]2C(=O)Nc2cccc(F)c2F)cc(C(F)(F)F)c1 [Compound 856] , state whether its pest or weed control at 125 g/ha is greater than or equal to 20%.
1

Check CN1C[C@H](c2cc(F)c(C(F)(F)F)c(F)c2)[C@@H](C(=O)Nc2ccc(F)cc2F)C1=O [Compound 901] too.
0

Check O=C1NC[C@H](c2ccc(F)c(OC(F)(F)C(F)(F)Br)c2)[C@H]1C(=O)Nc1cccc(F)c1F (racemic) [Compound 914] too.
1

Check COc1cc(C(F)(F)F)ccc1[C@H]1CN(C)C(=O)[C@@H]1C(=O)Nc1cccc(F)c1F [Compound 859] too.
1

Check COc1ccc([C@H]2CN(C)C(=O)[C@@H]2C(=O)Nc2ccccc2SC)cc1OC [Compound 854] too.
0

Check Cc1cc(C)cc([C@H]2CNC(=O)[C@@H]2C(=O)Nc2cccc(F)c2F)c1 [Compound 889] too.
1

* * *

I'd be grateful if you could share measured Plant response rating, Ryegrass, Italian for these entries.
Tested on: ryegrass, Italian (Italian ryegrass, Lolium multiflorum)
MEASUREMENT_DESCRIPTION: Test A postemergence
Format: in vivo
MEASUREMENT_PARAMETERS: 125 g ai/ha, postemergence; visual rating after approx. 10 d, 0 to 100 scale (0 no effect, 100 complete control)
Reply with just the number.

Form entry - test system: ryegrass, Italian (Italian ryegrass, Lolium multiflorum); read-out: Plant response rating, Ryegrass, Italian; compound: CC(C)Oc1cccc(C2CN(C)C(=O)C2C(=O)Nc2ccccc2C(F)(F)F)c1 (stereo not drawn)
50

Check Cc1ccc(C2CNC(=O)C2C(=O)Nc2cccc(F)c2F)cc1C(F)(F)F (stereo not drawn) too.
40

Check CN1CC(c2ccc(Br)cc2)C(C(=O)Nc2ccccc2S(C)(=O)=O)C1=O (stereo not drawn) too.
20

Check O=C(Nc1ccccc1F)C1C(=O)N(CC=CBr)CC1c1cccc(C(F)(F)F)c1 (stereo not drawn) too.
0

Check O=C1NCC(c2cc(C(F)(F)F)ccc2F)C1C(=O)Nc1cccc(F)c1F (stereo not drawn) too.
20

Check COc1cccc(NC(=O)C2C(=O)NCC2c2cccc(C(F)(F)F)c2)c1F (racemic) too.
0

* * *

System: barnyardgrass (Echinochloa crus-galli)
MEASUREMENT_DESCRIPTION: Test G Pre-Emergence Protocol
Assay type: in vivo
MEASUREMENT_PARAMETERS: Echinochloa crus-galli, pre-emergence, 312 h, 15.625 g ai/ha, evaluated after 13 days, read-out: Barnyardgrass damage rating (100=total damage to plant; 0=no damage to plant)
I'd be grateful if you could share measured pest or weed control at 15.625 g/ha for these entries.
Answer format: numeric, % implied, no suffix.

# query: pest or weed control at 15.625 g/ha of entry Cc1nc(F)ccc1NC(=O)[C@@H]1C(=O)N(C)C[C@H]1c1ccc(C(F)(F)F)cc1 (racemic) [Compound 1654]
0

Check CC(C)Oc1cc(F)cc(C2CN(C)C(=O)C2C(=O)Nc2cccc(F)c2F)c1 (stereo not drawn) [Compound 1724] too.
50

Check CCS(=O)(=O)c1ccccc1NC(=O)[C@H]1C(=O)N(C)C[C@@H]1c1ccc(C(F)(F)F)cc1 (racemic) [Compound 1664] too.
0

* * *

Tested on: giant foxtail (Setaria faberii)
MEASUREMENT_DESCRIPTION: Test A postemergence
Assay type: in vivo
MEASUREMENT_PARAMETERS: 125 g ai/ha, postemergence; visual injury rating on 0 to 100 scale (0 no effect, 100 complete control), approx. 10 d
Rule: Foxtail, Giant plant response rating under 50 gives not met, otherwise met.

Textbook exercise: given the entry O=C1NCC(c2cccc(OC(F)(F)C(F)F)c2)C1C(=O)Nc1ccccc1C(F)F (stereo not drawn) [Compound 391] , state whether its Foxtail, Giant plant response rating is greater than or equal to 50.
met

Check Cc1ccc(F)c(NC(=O)C2C(=O)NCC2c2cccc(OC(F)F)c2)c1 (stereo not drawn) [Compound 423] too.
not met

Check Cc1c(F)ccc(NC(=O)C2C(=O)NCC2c2cccc(OC(F)(F)C(F)F)c2)c1F (stereo not drawn) [Compound 460] too.
met

Check O=C1NCC(c2ccc(Br)cc2)C1C(=O)Nc1ccc(F)cc1F (stereo not drawn) [Compound 447] too.
met

Check Cc1cc(NC(=O)C2C(=O)NCC2c2cccc(OC(F)F)c2)ccc1F (stereo not drawn) [Compound 424] too.
not met
